Test system: T cells cultured from NOD islets
Assay: IFN-γ ELISPOT of T cells cultured from NOD islets with peptide-pulsed APC
Format: cell-based, mouse
Details: 1 μM peptide, T cells from pooled islets of 11-week-old NOD mice, 40 h
Test readout: IFN-γ spots in response to peptide

Macromolecule sequence: KYNKANVFL (peptide NRP-V7) [mimotope peptide recognized by 8.3-like T cells]
Endpoint value: detectable
//
Macromolecule sequence: LYLVCGERL (listed as Mus musculus) [INS-L9, G9L variant of murine insulin B15-23]
Endpoint value: detectable

====

Test system: AI4 CTL
Assay: 51Cr-release cytotoxicity assay, AI4 CTL against peptide-pulsed RMA-S target cells
Type: cell-based, mouse
Conditions: mimotope and alanine-substituted peptides, varying concentrations, E:T ratio of 40
Where no end group is shown, it is not given here.
Test readout: AI4 cytotoxic response towards peptide-pulsed RMA-S target cells

Macromolecule sequence: YFIENYLAL [A8]
Assayed system: AI4 CTL
Endpoint value: decreased
//
Macromolecule sequence: YFIENYAEL [A7]
Assayed system: AI4 CTL
Endpoint value: decreased
